# credit: patent US20070219212A1

target: BB7 RNA-dependent RNA polymerase hepatitis C virus protein (Con1 HCV sequence) (Hepatitis C virus genotype 1b); test: Hepatitis C polymerase (BB7) inhibition; assay type: biochemical
Sequence (Q9WMX2 2420-3010): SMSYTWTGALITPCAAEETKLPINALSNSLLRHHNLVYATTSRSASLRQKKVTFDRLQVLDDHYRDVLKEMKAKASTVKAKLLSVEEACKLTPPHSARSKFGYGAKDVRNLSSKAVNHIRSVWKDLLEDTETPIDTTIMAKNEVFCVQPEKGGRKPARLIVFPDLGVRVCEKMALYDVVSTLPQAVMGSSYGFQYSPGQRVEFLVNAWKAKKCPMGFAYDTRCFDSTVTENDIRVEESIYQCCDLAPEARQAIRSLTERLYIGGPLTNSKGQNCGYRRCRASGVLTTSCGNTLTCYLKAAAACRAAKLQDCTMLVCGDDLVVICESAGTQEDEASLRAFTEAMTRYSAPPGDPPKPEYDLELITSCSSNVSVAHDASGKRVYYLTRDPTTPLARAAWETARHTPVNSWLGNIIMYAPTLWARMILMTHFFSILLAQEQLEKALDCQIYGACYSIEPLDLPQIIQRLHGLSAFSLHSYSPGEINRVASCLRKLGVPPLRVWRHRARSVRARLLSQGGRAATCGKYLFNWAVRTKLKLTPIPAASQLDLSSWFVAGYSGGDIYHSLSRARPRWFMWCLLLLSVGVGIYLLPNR
Reported IC50 is given for each of the following molecules.

{"Molecule": "CCCC1(CC(=O)O)OCCc2c1[nH]c1c(C)c(OCc3ccc(N4CCOCC4)nc3)cc(C#N)c21 (stereo not drawn)", "IC50": "< 500 nM"}
{"Molecule": "CCC[C@]1(CC(=O)O)OCCc2c1[nH]c1c(C)c(OCCOC(C)C)cc(C#N)c21", "IC50": "< 500 nM"}

Endpoint output: IC50 of CCCC1(C(=O)O)OCCc2c1[nH]c1c(C)c(OCc3cc(C)on3)cc(C#N)c21 (stereo not drawn) . Value?
< 500 nM

###

Reported IC50 is given for each of the following compounds.
biological target: BB7 RNA-dependent RNA polymerase hepatitis C virus protein (Con1 HCV sequence) (Hepatitis C virus genotype 1b); test: Hepatitis C polymerase (BB7) inhibition; assay type: biochemical

Recorded IC50, per entry:
{"Compound": "CCCC1(CC(=O)O)OCCc2c1[nH]c1c(C)c(OCCN3CCCC3)cc(C#N)c21 (centres unmarked) [Example 58]", "IC50": "0.5 to 5 µM"}
{"Compound": "CCCC1(CC(=O)O)OCCc2c1[nH]c1c(C)c(O[C@@H]3CCNC3)cc(C#N)c21 (some centres unmarked) [Example 42]", "IC50": "0.5 to 5 µM"}
{"Compound": "CC#CCOCc1cc(C#N)c2c3c([nH]c2c1C)C(CCC)(CC(=O)O)OCC3 (centres unmarked) [Example 11]", "IC50": "0.5 to 5 µM"}
{"Compound": "CCCC1(CC(=O)O)OCCc2c1[nH]c1c(C)c(OCCOCC)cc(C#N)c21 (centres unmarked) [Example 111]", "IC50": "< 0.5 µM"}
{"Compound": "CCCC1(CC(=O)O)OCCc2c1[nH]c1c(C)c(COC3CCC3)cc(C#N)c21 (centres unmarked) [Example 6]", "IC50": "< 0.5 µM"}
{"Compound": "CCC[C@]1(CC(=O)O)OCCc2c1[nH]c1c(C)c(OCc3nnc(C)s3)cc(C#N)c21 [Example 29]", "IC50": "< 0.5 µM"}
{"Compound": "CCCC1(CC(=O)O)OCCc2c1[nH]c1c(C)c(COCc3ccsc3)cc(C#N)c21 (centres unmarked) [Example 18]", "IC50": "< 0.5 µM"}

Shift focus to the following entry.
Endpoint output: IC50 of CCCC1(CC(=O)O)OCCc2c1[nH]c1c(C)c(COCC3CCCC3)cc(C#N)c21 (centres unmarked) [Example 10] . Value?
0.5 to 5 µM

###

target: NS5B from the BK strain (genotype 1b) (Hepatitis C virus genotype 1b, UniProt P26663); construct: NS5B from the BK strain (genotype 1b) is expressed in E coli as a protein in which the 21 C-terminal amino acids are replaced; made in house; host or cells: E. coli; assay: Hepatitis C polymerase (NS5B, BK strain) inhibition, radioactive filter assay; format: biochemical; conditions: NS5B BK strain (genotype 1b)
Sequence (P26663 2420-2989): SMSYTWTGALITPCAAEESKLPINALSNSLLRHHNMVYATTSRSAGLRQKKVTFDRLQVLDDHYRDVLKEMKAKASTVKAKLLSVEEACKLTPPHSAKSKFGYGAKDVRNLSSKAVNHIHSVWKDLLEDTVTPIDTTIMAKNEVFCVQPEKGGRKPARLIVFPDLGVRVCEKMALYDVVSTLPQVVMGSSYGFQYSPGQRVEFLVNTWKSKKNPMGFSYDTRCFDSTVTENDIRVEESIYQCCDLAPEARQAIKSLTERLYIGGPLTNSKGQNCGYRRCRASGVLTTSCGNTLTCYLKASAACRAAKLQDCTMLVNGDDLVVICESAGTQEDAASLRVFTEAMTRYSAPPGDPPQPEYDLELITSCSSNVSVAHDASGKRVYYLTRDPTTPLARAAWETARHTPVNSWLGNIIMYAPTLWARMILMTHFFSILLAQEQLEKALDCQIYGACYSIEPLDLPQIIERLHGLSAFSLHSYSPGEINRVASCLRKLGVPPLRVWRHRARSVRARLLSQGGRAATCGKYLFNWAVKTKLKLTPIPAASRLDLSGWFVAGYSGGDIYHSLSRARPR
pIC50: −log10 of the molar value.
Reported pIC50 is given for each of the following compounds.

Recorded pIC50, per entry:
{"Compound": "CCCC1(CC(=O)O)OCCc2c1[nH]c1c(C)c(OCOC)cc(C#N)c21 (stereo not drawn) [Example 113]", "pIC50": "> 6.30"}
{"Compound": "CCCC1(CC(=O)O)OCCc2c1[nH]c1c(C)c(OCCN3CCCC3)cc(C#N)c21 (stereo not drawn) [Example 58]", "pIC50": "5.30 to 6.30"}

Shift focus to the following entry.
Endpoint output: pIC50 of CC[C@H](C)C1(CC(=O)O)OCCc2c1[nH]c1c(C)c(OCc3nsc(N(C)C)n3)cc(C#N)c21 (mixture of isomers) [Example 35] . Value?
> 6.30

###

Reported pIC50 is given for each of the following compounds.
target: NS5B from the BK strain (genotype 1b) (Hepatitis C virus genotype 1b); construct: NS5B from the BK strain (genotype 1b) is expressed in E coli as a protein in which the 21 C-terminal amino acids are replaced; experiment: Hepatitis C polymerase (NS5B, BK strain) inhibition, radioactive filter assay; conditions: NS5B BK strain (genotype 1b)
pIC50: −log10 of the molar value.

Recorded pIC50, per entry:
{"Compound": "CCCC1(CC(=O)O)OCCc2c1[nH]c1c(C)c(OCc3ccncc3)cc(C#N)c21 (stereo not shown) [Example 38]", "Tested Target": "NS5B from the BK strain (genotype 1b) (Hepatitis C virus genotype 1b)", "pIC50": "> 6.30"}
{"Compound": "CCCC1(CC(=O)O)OCCc2c1[nH]c1c(C)c(OCCOC)cc(C#N)c21 (stereo not shown)", "Tested Target": "NS5B from the BK strain (genotype 1b) (Hepatitis C virus genotype 1b)", "pIC50": "> 6.30"}
{"Compound": "CCCC1(CC(=O)O)OCCc2c1[nH]c1c(C)c(OCc3cccc(N)n3)cc(C#N)c21 (stereo not shown)", "Tested Target": "NS5B from the BK strain (genotype 1b) (Hepatitis C virus genotype 1b)", "pIC50": "> 6.30"}

Shift focus to the following entry.
For the record CCCC1(CC(=O)O)OCCc2c1[nH]c1c(C)c(OCc3cc(C)no3)cc(C#N)c21 (stereo not shown) , what value of pIC50 is listed for NS5B from the BK strain (genotype 1b) (Hepatitis C virus genotype 1b)?
> 6.30

###

biological target: NS5B from the BK strain (genotype 1b) (Hepatitis C virus genotype 1b, UniProt P26663); construct: NS5B from the BK strain (genotype 1b) is expressed in E coli as a protein in which the 21 C-terminal amino acids are replaced; assay: Hepatitis C polymerase (NS5B, BK strain) inhibition, radioactive filter assay; details: NS5B BK strain (genotype 1b)
pIC50: −log10 of the molar value.
Parameter Measured: pIC50

{"Compound": "CCCC1(CC(=O)O)OCCc2c1[nH]c1c(C)c(COC3CCCCC3)cc(C#N)c21 (centres unmarked)", "pIC50": "5.30 to 6.30"}
{"Compound": "CCCC1(CC(=O)O)OCCc2c1[nH]c1c(C)c(OCCCS(C)(=O)=O)cc(C#N)c21 (centres unmarked)", "pIC50": "> 6.30"}

Endpoint output: pIC50 of CCCC1(CC(=O)O)OCCc2c1[nH]c1c(C)c(OCc3c[nH]cn3)cc(C#N)c21 (centres unmarked) . Value?
> 6.30

Endpoint output: pIC50 of CCCC1(CC(=O)O)OCCc2c1[nH]c1c(C)c(OCc3ccnc(C(C)=NOC)c3)cc(C#N)c21 (centres unmarked) . Value?
> 6.30

Endpoint output: pIC50 of CCCC1(CC(=O)O)OCCc2c1[nH]c1c(C)c(OCCC3CC3)cc(C#N)c21 (centres unmarked) . Value?
> 6.30

Endpoint output: pIC50 of CCCOCc1cc(C#N)c2c3c([nH]c2c1C)C(CCC)(CC(=O)O)OCC3 (centres unmarked) . Value?
5.30 to 6.30

Endpoint output: pIC50 of CC#CCOCc1cc(C#N)c2c3c([nH]c2c1C)C(CCC)(CC(=O)O)OCC3 (centres unmarked) . Value?
5.30 to 6.30

Endpoint output: pIC50 of `CCC[C@]1(CC(=O)O)OCCc2c1[nH]c1c(C)c(OCCOCC)cc(C#N)c21` . Value?
> 6.30
